Experimental target: T1, human FAPα-His tag (Sino biological) (human, UniProt Q12884 26-760)
T1 construct: Bought protein; also called human FAPα-His protein; not shown: His tag
T1 sequence (looked up): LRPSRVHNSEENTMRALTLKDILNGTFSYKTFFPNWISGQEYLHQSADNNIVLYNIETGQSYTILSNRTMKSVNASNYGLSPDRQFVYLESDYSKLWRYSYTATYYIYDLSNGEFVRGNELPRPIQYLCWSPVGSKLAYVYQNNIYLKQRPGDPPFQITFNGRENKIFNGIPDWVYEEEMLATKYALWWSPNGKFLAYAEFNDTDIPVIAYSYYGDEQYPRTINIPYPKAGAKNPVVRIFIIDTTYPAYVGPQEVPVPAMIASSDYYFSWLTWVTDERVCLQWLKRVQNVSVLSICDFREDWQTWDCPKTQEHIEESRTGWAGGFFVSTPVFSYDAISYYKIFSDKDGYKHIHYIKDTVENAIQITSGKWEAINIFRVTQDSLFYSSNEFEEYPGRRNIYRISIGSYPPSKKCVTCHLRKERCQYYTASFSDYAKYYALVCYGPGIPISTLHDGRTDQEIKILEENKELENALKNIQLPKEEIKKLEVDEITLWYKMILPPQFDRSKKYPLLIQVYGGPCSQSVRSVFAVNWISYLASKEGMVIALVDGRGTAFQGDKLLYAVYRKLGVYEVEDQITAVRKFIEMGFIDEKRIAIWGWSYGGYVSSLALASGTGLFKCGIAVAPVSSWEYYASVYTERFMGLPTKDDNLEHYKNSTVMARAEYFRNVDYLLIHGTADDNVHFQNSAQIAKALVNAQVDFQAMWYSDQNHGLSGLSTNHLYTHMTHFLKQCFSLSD
Assay notes: SPR (Biacore T200), mAb captured on Protein A chip, human FAPα-His as analyte
Flag rule - kon less than 100000 M⁻¹ s⁻¹ flags y; the remaining entries get n.

1. J59 (antibody, V domains shown, Tested as a mAb) VH: QVQLLESGGGVVQPGRSLRLSCAASGFTFSSYGMHWVRQAPGKGLEWVAVISYDGSNKYYADSVKGRFTISRDNSKNTLYLQMNSLRADDTAVYYCARESYTGLGSFLHWGQGTLVTVSA VL: NIQLTQSPSSLSASVGDRVTITCRASQTISNYLNWYQQKPGKAPKLLISAASSLQGGVPSRFSGSGSGTDFTLAISSLQPEDSATYYCQYWGTFGQGTKLEIK :: n
2. J40 (antibody, V domains shown, Tested as a mAb; also called FAP-J40; FAP-J40-Bio (biotin-conjugated form)) VH: EVQLLESGGGLVQPGGSLRLSCAASGFTFSSYAMSWVRQAPGKGLEWVSAISGSGGSTYYADSVKGRFTISRDNSKNTLYLQMNSLRTDDTAVYYCARDLTTSTGWESWGQGTLVTVSA VL: NIQMTQSPSSVSASVGDRVTITCRASQGISSWLAWYQQKPGKAPKLLIYAASSLQSGVPSRFSGSGSGTDFTLTISSLQPEDFATYYCQQANSFPPTFGQGTKLEIK :: y
3. I37 (antibody, V domains shown, Tested as a mAb; also called FAP-I37) VH: QLQLVESGGGLVQPGGSLRLSCAASGFTFSSYAMSWVRQAPGKGLEWVSAISGSGGSTYYADSVKGRFTISRDNSKNTLYLQMNSLRAEDTAVYYCARDKPWGGSFDYWGQGTLVTVSA VL: DIQLTQSPSSLSASVGDRVTITCRASQGISSWLAWYQQKPGKAPKLLIYAASSLQSGVPSRFSGSGSGTDFTLTISSLQPEDFATYYCQQANSFPVTFGPGTKVDIK :: n
4. G14 (antibody, V domains shown, Full human antibody from a Fab phage library; Tested as a mAb (detected with anti-human IgG, captured on Protein A); also called FAP-G14; FAP-G14-Bio (biotin-conjugated form)) VH: QVQLLESGGGVVQPGRSLRLSCAASGFTFSSYAMHWVRQAPGKGLEWVAFISHDGNRNSYADSVRGRFTISRDNSKNTLYLQMNSLRAEDTAVYYCARDLGYYNGFSYWGQGTLVTVSA VL: DIVMTQSPSSVSASVGDRVTITCRASQGISSWLAWYQQKPGKAPKLLIYAASSLQSGVPSRFSGSGSGTDFTLTISSLQPEDFATYYCQQANSFPPTFGPGTKVDIK :: n
5. G52 (antibody, V domains shown, Tested as a mAb; also called FAP-G52; FAP-G52-Bio (biotin-conjugated form)) VH: EVQLLESGGDLVQPGGSLRLSCAASGFTFSSYAMSWVRQAPGKGLEWVSGISNGGDSIAYADSVKGRFTVFRDNAKNTLYLQMNSLRAEDTAIYYCARGNYYAHDDWGQGTLVTVSA VL: DIQLTQSPSSVSASVGDRVTITCRASQGVGSWLAWYQQKPGKPPKLLIYAASSLQSGVPSRFSGSGSGTDFTLTISSLQPEDFATYYCQQANSFPLTFGGGTKVEIK :: y
